- Tested on: Cryptococcus neoformans
- assay explanation: Antifungal activity against Cryptococcus neoformans KCCM 50564 after 1 day by twofold broth dilution method
- Type: functional
- stated conditions: KCCM 50564, 24 h
Hi there, I'd appreciate the recorded MIC for every entry that follows.
Quick reminder: number only, in µg/mL, skip the unit.

Qu. Return reported MIC; argument: COc1ccc(OC)c2ncncc12
Ans. 50

Qu. Cc1cccc(SC2=C(Sc3cccc(C)c3)C(=O)c3ncncc3C2=O)c1 , same question.
Ans. 0.8

Qu. O=C1C(Sc2ccc(F)c(F)c2)=C(Sc2ccc(F)c(F)c2)C(=O)c2ncncc21 , same question.
Ans. 6.3

Qu. O=C1C(Sc2ccc(Br)cc2)=C(Sc2ccc(Br)cc2)C(=O)c2ncncc21 , same question.
Ans. 12.5

Qu. CCOC(=O)c1c(N)oc2c1c(Sc1ccc(F)cc1)c(O)c1ncncc12 , same question.
Ans. 3.2

Qu. O=C1C(Sc2ccccc2)=C(Sc2ccccc2)C(=O)c2ncncc21 , same question.
Ans. 25

Qu. CCOC(=O)c1c(N)oc2c1c(Sc1ccc(F)c(F)c1)c(O)c1ncncc12 , same question.
Ans. 6.3

Qu. CCOC(=O)c1c(N)oc2c1c(Sc1ccc(OC)cc1)c(O)c1ncncc12 , same question.
Ans. 12.5

Qu. O=C1C(Sc2ccccc2F)=C(Sc2ccccc2F)C(=O)c2ncncc21 , same question.
Ans. 1.6

Qu. Cc1ccc(SC2=C(Sc3ccc(C)c(C)c3)C(=O)c3ncncc3C2=O)cc1C , same question.
Ans. 3.2

Qu. O=C1C(SCCO)=C(SCCO)C(=O)c2ncncc21 , same question.
Ans. 6.3

Qu. CCOC(=O)c1c(N)oc2c1c(Sc1ccc(C)cc1)c(O)c1ncncc12 , same question.
Ans. 3.2

Qu. CCOC(=O)c1c(N)oc2c1c(SCC)c(O)c1ncncc12 , same question.
Ans. 12.5

Qu. CCOC(=O)c1c(N)oc2c1c(Sc1ccc(Br)cc1)c(O)c1ncncc12 , same question.
Ans. 3.2

Qu. O=C1C(Sc2ccc(Cl)cc2)=C(Sc2ccc(Cl)cc2)C(=O)c2ncncc21 , same question.
Ans. 6.3

Qu. COc1ccc(SC2=C(Sc3ccc(OC)cc3)C(=O)c3ncncc3C2=O)cc1 , same question.
Ans. 6.3

Qu. CCOC(=O)c1c(N)oc2c1c(Sc1cccc(Cl)c1)c(O)c1ncncc12 , same question.
Ans. 12.5

Qu. O=C1C(Sc2ccc(O)cc2)=C(Sc2ccc(O)cc2)C(=O)c2ncncc21 , same question.
Ans. 12.5

Qu. CCOC(=O)c1c(N)oc2c1c(Sc1ccc(Cl)cc1)c(O)c1ncncc12 , same question.
Ans. 6.3

Qu. OC(Cn1cncn1)(Cn1cncn1)c1ccc(F)cc1F , same question.
Ans. 6.3

====

- Test system: Pichia kudriavzevii
- assay explanation: Antifungal activity against Candida krusei Berkout KCCM 11655 after 1 day by twofold broth dilution method
- Assay type: functional
- stated conditions: Berkout KCCM 11655, 24 h
value kind: MIC (µg/mL)
Quick reminder: number only, in µg/mL, skip the unit.

Qu. Give Pichia kudriavzevii MIC for O=C1C(Sc2ccc(F)c(F)c2)=C(Sc2ccc(F)c(F)c2)C(=O)c2ncncc21
Ans. 12.5

Qu. CCOC(=O)c1c(N)oc2c1c(Sc1ccc(F)cc1)c(O)c1ncncc12 , same question.
Ans. 6.3

Qu. CCOC(=O)c1c(N)oc2c1c(Sc1ccc(F)c(F)c1)c(O)c1ncncc12 , same question.
Ans. 6.3

Qu. COc1ccc(SC2=C(Sc3ccc(OC)cc3)C(=O)c3ncncc3C2=O)cc1 , same question.
Ans. 3.2

Qu. CCOC(=O)c1c(N)oc2c1c(Sc1ccc(C)cc1)c(O)c1ncncc12 , same question.
Ans. 6.3

Qu. CCOC(=O)c1c(N)oc2c1c(Sc1ccc(Cl)cc1)c(O)c1ncncc12 , same question.
Ans. 50

Qu. Cc1ccc(SC2=C(Sc3ccc(C)cc3)C(=O)c3ncncc3C2=O)cc1 , same question.
Ans. 6.3

Qu. CCSC1=C(SCC)C(=O)c2ncncc2C1=O , same question.
Ans. 6.3

Qu. CCOC(=O)c1c(N)oc2c1c(SCC)c(O)c1ncncc12 , same question.
Ans. 25

Qu. OC(Cn1cncn1)(Cn1cncn1)c1ccc(F)cc1F [FLUCONAZOLE] , same question.
Ans. 25

Qu. O=C1C(Sc2cccc(F)c2)=C(Sc2cccc(F)c2)C(=O)c2ncncc21 , same question.
Ans. 12.5

Qu. Nc1nc(=O)[nH]cc1F [FLUCYTOSINE] , same question.
Ans. 6.3

Qu. CCOC(=O)c1c(N)oc2c1c(Sc1cccc(Cl)c1)c(O)c1ncncc12 , same question.
Ans. 50

Qu. O=C1C(Sc2ccccc2)=C(Sc2ccccc2)C(=O)c2ncncc21 , same question.
Ans. 6.3

Qu. O=C1C(Sc2ccc(F)cc2F)=C(Sc2ccc(F)cc2F)C(=O)c2ncncc21 , same question.
Ans. 12.5

Qu. O=C1C(Sc2ccc(Cl)cc2)=C(Sc2ccc(Cl)cc2)C(=O)c2ncncc21 , same question.
Ans. 3.2

All figures here come from ChEMBL document CHEMBL1932990.
